target: furin, P09958; assay: furin cleavage Z-score vs untreated control; higher = more cleavage, active = 3.5 or more, inactive = 1 or less, 8 variable residues between constant flanks; details: 15 min;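 note: purified furin at 1:10 enzyme:substrate in 50 mM HEPES pH 7.5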
Sequence (P09958 whole entry): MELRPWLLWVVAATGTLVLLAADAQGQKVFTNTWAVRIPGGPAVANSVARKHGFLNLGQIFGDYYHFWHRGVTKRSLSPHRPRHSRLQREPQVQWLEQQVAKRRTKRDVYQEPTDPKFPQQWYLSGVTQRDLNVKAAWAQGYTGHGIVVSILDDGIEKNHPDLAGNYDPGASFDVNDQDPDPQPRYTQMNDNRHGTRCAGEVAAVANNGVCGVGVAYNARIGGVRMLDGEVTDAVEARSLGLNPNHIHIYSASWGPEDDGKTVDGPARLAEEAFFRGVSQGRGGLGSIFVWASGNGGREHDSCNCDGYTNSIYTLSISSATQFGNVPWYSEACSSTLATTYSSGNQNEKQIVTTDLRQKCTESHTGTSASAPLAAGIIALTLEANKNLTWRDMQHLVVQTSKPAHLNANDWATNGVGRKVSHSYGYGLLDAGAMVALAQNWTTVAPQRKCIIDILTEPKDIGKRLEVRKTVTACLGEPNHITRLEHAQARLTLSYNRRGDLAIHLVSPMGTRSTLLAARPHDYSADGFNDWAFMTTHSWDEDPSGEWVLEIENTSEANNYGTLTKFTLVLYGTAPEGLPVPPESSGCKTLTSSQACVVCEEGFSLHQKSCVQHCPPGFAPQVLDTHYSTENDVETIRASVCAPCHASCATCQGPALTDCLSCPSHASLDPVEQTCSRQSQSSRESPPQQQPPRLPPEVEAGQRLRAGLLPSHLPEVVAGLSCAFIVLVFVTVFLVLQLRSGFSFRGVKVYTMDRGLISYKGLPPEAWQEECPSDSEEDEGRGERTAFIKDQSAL
This is one part of the list. How many sequences the whole screen found active is unknown.
endpoint.label: furin cleavage Z-score

Please review the entries below; each comes with its answer.
| residue.codes | furin cleavage Z-score |
| --- | --- |
| CALSPGALVVAGNASASA [HC1104] | 1.25 |
| CAAKSRQRRQAGNASASA [FS-1583] | 11 (active) |
| CAATPCSGSWAGNASASA [HC1823] | -0.493 (inactive) |

What the record says about CAMWERYCRGAGNASASA [FS-1377] : furin cleavage Z-score is 1.38

// recorded furin cleavage Z-score for CAAKSRQMRSAGNASASA [FS-321] : 12.5 (active)

The sequence identified as CARVTAILSSAGNASASA [HC1132] registered its furin cleavage Z-score at 0.277 (inactive)

Field furin cleavage Z-score (entry CAQQSRSKRGAGNASASA [FS-286] ) reads 8.25 (active)
